// data source = patent US12653191B2

This section presents molecules with their documented Efficacy values.
Tested on: Fusarium culmorum
test: in vitro-Test with fungal microorganisms, Method B (tables G5-G15)
Assay type: cell-based
condition_summary: 0.008 ppm alone
// return numeric value only (unit: %, not printed)

Prompt: Return reported Efficacy. Input molecule: COc1ccnc(C(=O)N[C@H]2COC(=O)[C@H](Cc3ccccc3)[C@@H](OC(=O)C(C)C)[C@H](C)OC2=O)c1OCOC(=O)C(C)C [(3.025) fenpicoxamid, fenpicoxamid]
Completion: 10

Prompt: Return reported Efficacy. Input molecule: N#Cc1ccc(Oc2ccc(C(F)(F)C(O)(Cn3[nH]cnc3=S)c3ccc(F)cc3F)nc2)cc1 (stereo not shown) [fluoxytioconazole]
Completion: 12

Prompt: Return reported Efficacy. Input molecule: CC(C)c1ccc(Cl)cc1CN(C(=O)c1c(C(F)F)nn(C)c1F)C1CC1 [(2.038) isoflucypram, isoflucypram]
Completion: 0

Prompt: Return reported Efficacy. Input molecule: Cn1cc(C(=O)Nc2ccc(F)cc2-c2ccc(Cl)c(Cl)c2)c(C(F)F)n1 [(2.002) bixafen, bixafen]
Completion: 2
